- measuredTarget: Bromodomain-containing protein 4 (Homo sapiens)
- assayOverview: Inhibition of human BRD4-BD1 (49 to 170 residues) expressed in Escherichia coli BL21(DE3) using N-C:SGRG-K(Ac)-GG-K(Ac)-GLG-K(Ac)-GGA-K(Ac)-RHRKVGG-K(biotin) as substrate preincubated for 15 mins followed by substrate addition measured after 5 mins by AlphaScreen assay relative to control
- Set-up: concentration or dose not given beside the values
Category | rule: reported inhibition within range, see low-valued = under 40%, mid-valued = from 40% up to 60%, high-valued = 60% and over

The following molecules have reported results that may help.
# smilesStructure, classLabel
rows = [
    ("O=C(NCCCNc1cc(=O)oc2ccccc12)c1cccnc1", "low-valued"),
    ("CN(CCCNc1cc(=O)oc2ccccc12)C(=O)C(C)(C)C", "high-valued"),
    ("CN(CCCNc1cc(=O)oc2ccccc12)S(=O)(=O)c1ccccc1", "low-valued"),
    ("CN(CCCNc1cc(=O)oc2ccccc12)C(=O)c1ccco1", "high-valued"),
    ("O=C(NCCCNC(=O)c1cccs1)c1nc2ccccc2c(=O)[nH]1", "high-valued"),
]

Query string: Dear colleague, I would appreciate it if you could identify the bin for CN(CCCNC(=O)c1nc2ccccc2c(=O)[nH]1)C(=O)c1cccs1 and reply at your convenience.
Result string: mid-valued

Query string: Dear colleague, I would appreciate it if you could identify the bin for O=c1cc(NCCCN2CCN(Cc3ccccc3)CC2)c2ccccc2o1 and reply at your convenience.
Result string: mid-valued

Query string: Dear colleague, I would appreciate it if you could identify the bin for O=C(NCCNc1cc(=O)oc2ccccc12)c1ccc2ccccc2n1 and reply at your convenience.
Result string: low-valued

Query string: Dear colleague, I would appreciate it if you could identify the bin for CN(C)CCCNCCCNc1cc(=O)oc2ccccc12 and reply at your convenience.
Result string: low-valued

====

Recorded IC50 by entry
- measuredTarget: Bromodomain-containing protein 4 (Homo sapiens)
- assayOverview: Inhibition of human BRD4-BD1 (49 to 170 residues) expressed in Escherichia coli BL21(DE3) using N-C:SGRG-K(Ac)-GG-K(Ac)-GLG-K(Ac)-GGA-K(Ac)-RHRKVGG-K(biotin) as substrate preincubated for 15 mins followed by substrate addition measured after 5 mins by AlphaScreen assay
Express your answer in µM, writing the number without its unit.

# compound, measuredTarget, attributeMeasured, reported
records = [
    ("CCCNS(=O)(=O)c1ccc2c3c(cccc13)C(=O)N2CC", "Bromodomain-containing protein 4 (Homo sapiens)", "IC50", 2.64),
    ("CC(=O)C(C(C)=O)C(c1ccc(Cl)cc1)c1ccc(Cl)cc1", "Bromodomain-containing protein 4 (Homo sapiens)", "IC50", 27.5),
    ("O=c1[nH]n(CC2COC3(CCCCC3)O2)c(=O)c2ccccc12 (configuration not stated)", "Bromodomain-containing protein 4 (Homo sapiens)", "IC50", 13.3),
    ("c1coc(-c2nnc(-c3ccc4ccccc4c3)c3nocc23)c1", "Bromodomain-containing protein 4 (Homo sapiens)", "IC50", 13.3),
    ("CCN1C(=O)c2cccc3c(S(=O)(=O)Nc4ccccc4C)ccc1c23", "Bromodomain-containing protein 4 (Homo sapiens)", "IC50", 9.68),
    ("CC1(C)CON(Cc2ccc(N3C(=O)c4cccnc4C3=O)cc2Cl)C1=O", "Bromodomain-containing protein 4 (Homo sapiens)", "IC50", 12.7),
    ("O=C(CNc1cc(=O)oc2ccccc12)OCC(=O)c1ccc(Br)cc1", "Bromodomain-containing protein 4 (Homo sapiens)", "IC50", 1.04),
    ("O=C(NCc1n[nH]c(=O)c2ccccc12)c1cccc(Cl)c1", "Bromodomain-containing protein 4 (Homo sapiens)", "IC50", 47.3),
]

Query string: If you can, please state the reported IC50 value of O=C(Nc1ccc(Cl)cn1)c1c(F)c(F)c(F)c(F)c1F .
Result string: 32.2
